FYI, the data here is from PubChem BioAssay (NCI).

Task for the reader: assign each of the following compounds its reported GI50.
# Test system: SF-268 CNS
# ASSAY_INFO: NCI tumour cell line growth inhibition, 48 h

{"STRUCTURE_SMILES_STRING": "CC[O-].CC[O-].O=C([CH-]C(=O)c1ccccc1)CCCCCCCCC(=O)[CH-]C(=O)c1ccccc1.[Ti+4]", "MEASURED_PARAMETER": "GI50", "EXPERIMENTAL_VALUE": "> 100 µM"}
{"STRUCTURE_SMILES_STRING": "COc1ccc2c(c1)C(=O)/C(=C/c1cccc(OCC(=O)c3ccccc3)c1)CC2", "MEASURED_PARAMETER": "GI50", "EXPERIMENTAL_VALUE": "45.2 µM"}
{"STRUCTURE_SMILES_STRING": "CCOc1ccccc1CCN=C1NC(=O)/C(=C/c2ccc3ncccc3c2)S1", "MEASURED_PARAMETER": "GI50", "EXPERIMENTAL_VALUE": "1.35 µM"}

Now for the compound whose GI50 we want.
So for CCCCN(CCCC)Cc1cc(Nc2ccnc3cc(Cl)ccc23)ccc1O , the logged GI50 turned out to be > 100 µM

###

# Tested on: UO-31 renal
# ASSAY_INFO: NCI tumour cell line growth inhibition, 48 h
Task for the reader: assign each of the following molecules its reported TGI.

Use the examples below as a reference point.
{"MOLECULE": "C=CCC1(C#N)C(=S)NC2=C(C(=O)CC(C)(C)C2)C1c1ccccc1 (configuration not stated)", "TARGET": "UO-31 renal", "EXPERIMENTAL_VALUE": "> 100 µM"}
{"MOLECULE": "CCc1cccc(C)c1NS(=O)(=O)c1ccccc1", "TARGET": "UO-31 renal", "EXPERIMENTAL_VALUE": "> 100 µM"}
{"MOLECULE": "COc1cccc(-c2nc3cc(NC(=O)c4ccc(Cl)c(C#N)c4)ccc3o2)c1", "TARGET": "UO-31 renal", "EXPERIMENTAL_VALUE": "> 100 µM"}
{"MOLECULE": "O=C(Oc1cccnc1)c1cccnc1Nc1ccnc(C(F)(F)F)c1", "TARGET": "UO-31 renal", "EXPERIMENTAL_VALUE": "81.5 µM"}
{"MOLECULE": "COc1ccc(N2C(=O)C3c4[nH]c5ccc(OCc6ccccc6)cc5c4C4CCC(c5ccccc5)CC4C3C2=O)cc1 (configuration not stated)", "TARGET": "UO-31 renal", "EXPERIMENTAL_VALUE": "> 96.9 µM"}

Each molecule below has a reported value. Please supply its TGI.
1. O=c1cc(-c2cccs2)[nH]c2cc3c(cc12)OCO3
2. CC(=O)O[C@H]1CC(C)(C)C(=C=C/C(C)=C/C=C/C=C/C=C(C)/C=C2C=C(/C=C/[C@@]34O[C@]3(C)C[C@@H](O)CC4(C)C)C(=O)O/2)[C@](C)(O)C1
3. CC(N=NNc1ccc(-c2nc3ccccc3[nH]2)cc1)C(=O)O (configuration not stated)
4. Cc1ccc2cnc(N)c(C#Cc3cc(C(=O)Nc4ccc(CN5CCN(C)CC5)c(C(F)(F)F)c4)cnc3C)c2c1
5. CCCCCOc1ccc(C=Nc2ccc(CCc3ccc(N=Cc4ccc(OCCCCC)cc4)cc3)cc2)cc1

["> 100 µM", "30.7 µM", "> 100 µM", "1.3 µM", "> 100 µM"]

Each molecule below has a reported value. Please supply its TGI.
1. C#CCNC(CSSCC(N)C(=O)O)C(=O)O (configuration not stated)
2. COC1=NCc2ccccc2-c2ccccc21

> 100 µM
> 100 µM

###

# Tested on: A498 renal
# ASSAY_INFO: NCI tumour cell line growth inhibition, 48 h
MEASURED_PARAMETER: TGI

{"COMPOUND": "O=[N+]([O-])c1ccccc1N=Nc1c(O)[nH]c2cccc(C(F)(F)F)c12", "TGI": "> 100 µM"}

Each compound below has a reported value. Please supply its TGI.
1. O=C1C[C@H]2CCCN2[C@@H](c2ccccc2)C1
2. CCn1nc(C)c2c1C(=O)NCC(=O)N2
3. COc1ccc(N2CC(=O)N(C(=O)COc3ccc(OCC(=O)N4C(=O)CN(c5ccc(OC)cc5)C4=S)cc3)C2=S)cc1
4. C/C=C/C(C#N)O[Si](C)(C)C (stereo unspecified)

1: > 100 µM; 2: > 100 µM; 3: > 100 µM; 4: > 100 µM

###

# Test system: NCI-H226 lung
# ASSAY_INFO: NCI tumour cell line growth inhibition, 48 h
MEASURED_PARAMETER: GI50

{"COMPOUND": "CCOC(=O)Oc1c(OC)cc(C(=O)c2ccc(OC)c(O)c2OC)cc1OC", "GI50": "4.56 µM"}
{"COMPOUND": "CCCCN(CCCC)Cc1cc(Nc2ccnc3cc(Cl)ccc23)ccc1O", "GI50": "11.1 µM"}
{"COMPOUND": "Nc1nc2ccc(-c3nc4ccc5[nH]ncc5c4c4c3CCC4)cc2s1", "GI50": "1.1 µM"}

Now for the compound whose GI50 we want.
Tested on NCI-H226 lung, the item O=C1OCC2=C1C(c1cccc(F)c1)c1cc3c(cc1N2CCO)OCO3 (centres undefined) showed GI50 equal to > 50 µM

###

# Tested on: UACC-257 melanoma
# ASSAY_INFO: NCI tumour cell line growth inhibition, 48 h
MEASURED_PARAMETER: TGI

Each molecule below has a reported value. Please supply its TGI.
1. CCn1nc(C)c2c1C(=O)NCC(=O)N2
2. COC(=O)C1=CO[C@@H](OC2CC(CO)C(O)C(O)C2O)[C@@H]2[C@@H](C)[C@@H](OC(=O)/C=C/c3ccccc3)[C@@H](O)[C@H]12 (some centres undefined) (tested in a mixture with another compound)

1. > 100 µM
2. > 100 µM

Each molecule below has a reported value. Please supply its TGI.
1. CC1CC[C@@]2(OC1)OC1C[C@H]3[C@@H]4CC=C5CC(OC6OC(CO)C(OC7OC(CO)C(O)C(OC8OCC(O)C(O)C8O)C7OC7OC(CO)C(OC8OC(C)C(OC9OC(C)C(O)C(O)C9O)C(O)C8O)C(O)C7O)C(O)C6O)CCC5(C)[C@H]4CCC3(C)C1[C@@H]2C (some centres undefined)
2. CCN(CCCOc1ccccc1)CCN(CC)CCCOc1ccccc1
3. Nc1ncnc2c1ncn2C1OC(CSCC(F)(F)F)C(O)C1O (centres undefined)
4. O=C(/C=C/c1ccccc1)Oc1cccc2cccnc12
5. c1ccc(-c2nc(-c3ccccn3)nc(-c3ccccn3)n2)nc1

["18.1 µM", "31.5 µM", "> 100 µM", "18.2 µM", "> 100 µM"]

###

Task for the reader: assign each of the following compounds its reported TGI.
# Test system: SK-MEL-28 melanoma
# ASSAY_INFO: NCI tumour cell line growth inhibition, 48 h

{"COMPOUND": "COc1ccc2c(c1)C(=O)/C(=C/c1cccc(OCC(=O)c3ccccc3)c1)CC2", "EXPERIMENTAL_VALUE": "> 100 µM"}

Each compound below has a reported value. Please supply its TGI.
1. C=CCOC(=O)N1c2ccc(O[Si](C)(C)C(C)(C)C)cc2[C@@]23O[C@@]24[C@@H]1C#C/C=C\C#C[C@]3(O)C(OC)(OC)C[C@@H]4C
2. CCc1c2c(nc3ccc(OCc4ccc(B(O)O)cc4)cc13)-c1cc3c(c(=O)n1C2)COC(=O)[C@]3(O)CC
3. CCC/C(Cl)=N\OC(=O)Nc1ccc(F)cc1
4. CC1CC[C@@]2(OC1)OC1C[C@H]3[C@@H]4CC=C5CC(OC6OC(CO)C(OC7OC(CO)C(O)C(OC8OCC(O)C(O)C8O)C7OC7OC(CO)C(OC8OC(C)C(OC9OC(C)C(O)C(O)C9O)C(O)C8O)C(O)C7O)C(O)C6O)CCC5(C)[C@H]4CCC3(C)C1[C@@H]2C (stereo partly drawn)
5. COc1ccc2nccc(C3=CCC4CCN(C(=O)c5ccccc5)C3C4)c2c1 (stereo not drawn)
6. O=C(O)CC(Cc1ccccc1Cl)C(=O)O (stereo not drawn)
7. O=C(N/N=C/c1ccccc1O)N/N=C/c1ccccc1O

1: > 100 µM; 2: > 100 µM; 3: 38.4 µM; 4: 20.1 µM; 5: > 100 µM; 6: > 100 µM; 7: > 100 µM

Each compound below has a reported value. Please supply its TGI.
1. O=C1C2C3C=C4c5ccccc5N(c5ccccc5)C4(C2C(=O)N1c1ccccc1)C1C(=O)N(c2ccccc2)C(=O)C31 (stereo not drawn)
2. COC(=O)c1sc(C(=O)OC)c2c1CS(=O)C2
3. C[N+](C)(C)CCC(=O)CC[N+](C)(C)C
4. COc1cc(Cl)cc(=O)c(O)c1OC
5. COC(=O)Cc1cc(O)c2c(c1O)C(=O)c1ccccc1C2=O
6. CCc1cccc(C)c1NS(=O)(=O)c1ccccc1
7. CCOC(=O)C(C#N)(Cc1c[nH]c2ccccc12)NC(C)=O (stereo not drawn)
8. CCOC(=O)Oc1c(OC)cc(C(=O)c2ccc(OC)c(O)c2OC)cc1OC

["> 100 µM", "> 100 µM", "50.1 µM", "> 100 µM", "> 100 µM", "> 100 µM", "> 100 µM", "> 100 µM"]

Each compound below has a reported value. Please supply its TGI.
1. CCSCCCSCCSCC
2. Clc1ccc(-c2cn3ccnc3c(-c3ccc(Cl)cc3)n2)cc1

1: > 100 µM; 2: > 100 µM
